Test system: PaTu 8988t
assay.overview: Selectivity index, ratio of IC50 against human PA-TU-8988T cells under normoxic condition to IC50 for human PA-TU-8988T cells under hypoxic condition
Type: functional
Please note: 1 applies when Ratio IC50 is 4 or greater, and -1 applies otherwise.

Please check the record C=C1/C=C/C(=O)N(C)CC(=O)N[C@@H](CC(=O)NC)C(=O)O[C@@H]([C@H](C)CCCCCCCCCCCCCC)[C@H](C)C(=O)N1 and state if its Ratio IC50 is at or above 4.
1

Please check the record C=C1/C=C/C(=O)N(C)C(C)C(=O)N[C@@H]([C@H](O)C(=O)OC)C(=O)O[C@@H]([C@H](C)CCCCCCCCCCCC(C)C)[C@H](C)C(=O)N1 (single isomer, unassigned; 1d) and state if its Ratio IC50 is at or above 4.
-1

Please check the record C=C1/C=C/C(=O)N(C)CC(=O)NCC(=O)O[C@@H]([C@H](C)CCCCCCCCCCCCCC)[C@H](C)C(=O)N1 and state if its Ratio IC50 is at or above 4.
1

Please check the record C=C1/C=C/C(=O)N(C)CC(=O)N[C@@H]([C@H](O)C(N)=O)C(=O)O[C@@H]([C@H](C)CCCCCCCCCCCC(C)C)[C@H](C)C(=O)N1 and state if its Ratio IC50 is at or above 4.
1

Please check the record C=C1/C=C/C(=O)N(C)C(C)C(=O)N[C@@H]([C@H](O)C(=O)OC)C(=O)O[C@@H]([C@H](C)CCCCCCCCCCCC(C)C)[C@H](C)C(=O)N1 (single isomer, unassigned; 1c) and state if its Ratio IC50 is at or above 4.
-1

Please check the record C#CCOC(=O)C[C@@H]1NC(=O)CN(C)C(=O)/C=C/C(=C)NC(=O)[C@@H](C)[C@H]([C@H](C)CCCCCCCCCCCC(C)C)OC1=O and state if its Ratio IC50 is at or above 4.
-1

Please check the record C=C1/C=C/C(=O)N(C)CC(=O)N[C@@H](Cc2ccccc2)C(=O)O[C@@H]([C@H](C)CCCCCCCCCCCCCC)[C@H](C)C(=O)N1 and state if its Ratio IC50 is at or above 4.
-1

Please check the record C=C1/C=C/C(=O)N(C)CC(=O)N[C@@H](CC(=O)OC)C(=O)O[C@@H]([C@H](C)CCCCCCCCCCCCCC)[C@H](C)C(=O)N1 and state if its Ratio IC50 is at or above 4.
-1

Please check the record C=C1/C=C/C(=O)N(C)CC(=O)N[C@@H](CC(=O)OCC)C(=O)O[C@@H]([C@H](C)CCCCCCCCCCCC(C)C)[C@H](C)C(=O)N1 and state if its Ratio IC50 is at or above 4.
-1

Please check the record C=C1/C=C/C(=O)N(C)CC(=O)N[C@@H](CC(=O)OC)C(=O)O[C@@H]([C@H](C)CCCCCCCCCCCC(C)C)[C@H](C)C(=O)N1 and state if its Ratio IC50 is at or above 4.
1

Please check the record C=C1/C=C/C(=O)N(C)CC(=O)N[C@@H]([C@H](O)C(=O)OCC)C(=O)O[C@@H]([C@H](C)CCCCCCCCCCCC(C)C)[C@H](C)C(=O)N1 and state if its Ratio IC50 is at or above 4.
-1

Please check the record C=C1/C=C/C(=O)N(C)CC(=O)N[C@@H](CC(=O)NC2CC2)C(=O)O[C@@H]([C@H](C)CCCCCCCCCCCCCC)[C@H](C)C(=O)N1 and state if its Ratio IC50 is at or above 4.
1
